- MEASURED_TARGET: T1, KIR3DL2 recombinant protein (R&D Systems) (human, UniProt P43630 28-340)
- T1 construct: Bought protein; also called rec KIR3DL2; recombinant KIR3DL2-Fc fusion protein; not shown: Fc part of the bought fusion protein; not described
- T1 sequence (P43630 28-340 A108T): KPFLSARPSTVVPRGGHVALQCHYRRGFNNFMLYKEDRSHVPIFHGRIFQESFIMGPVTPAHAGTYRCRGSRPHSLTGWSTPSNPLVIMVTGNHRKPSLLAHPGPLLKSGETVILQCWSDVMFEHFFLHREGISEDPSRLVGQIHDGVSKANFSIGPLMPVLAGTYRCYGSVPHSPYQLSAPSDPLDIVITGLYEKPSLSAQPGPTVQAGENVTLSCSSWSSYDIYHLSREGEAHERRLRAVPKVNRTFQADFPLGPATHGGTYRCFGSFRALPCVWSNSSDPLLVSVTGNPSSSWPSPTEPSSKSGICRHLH
- EXPERIMENT_DESCRIPTION: regular kinetic method
Listed binders paired with reported pKd
The scale used: pKd is minus the common logarithm of the concentration in molar units.

Query :: Entry chimeric 15C11 of human IgG1 Fc isotype (antibody, V domains shown, Human-mouse chimeric antibody with the variable regions of murine 15C11; also called chim15C11; Chim15C11) VH: EVKLEESGGGLVQPGGSMKLSCAASGFTFSDAWMDWVRQSPEKGLEWVAEIRSKANNHATYYAESVKGRFTISRDDSKSSVYLRMNSLRAEDTGIYYCTGGYYPVYWGQGTLVTVSA VL: DIQMTQSPSSLSASLGGKVTITCKASQDINKNIAWYQHKPGKGPRLLIHYTSTLQPGFPSRFSGSGSGRDYSFSISNLEPEDLATYYCLQYDNLLTFGGGTKLEIK : reported pKd = ?
Result :: 9.17

Query :: Entry Hum33-K32-15C11 (antibody, V domains shown, also called H3/L3; H3-L3) VH: EVQLVESGGGLVQPGGSLRLSCAASGFTFSDAWMDWVRQAPGKGLEWVAEIRSKANNHATYYAASVKGRFTISRDDSKNSVYLQMNSLKTEDTAVYYCTGGYYPVYWGQGTLVTVSS VL: DIQMTQSPSSLSASVGDRVTITCKASQDINKNIAWYQHKPGKAPKLLIHYTSTLQPGVPSRFSGSGSGRDYTFTISSLQPEDIATYYCLQYDNLLTFGGGTKVEIK : reported pKd = ?
Result :: 9.11

Query :: Entry Hum32-K32-15C11 (antibody, V domains shown, also called H3/L2) VH: EVQLVESGGGLVQPGGSLRLSCAASGFTFSDAWMDWVRQAPGKGLEWVAEIRSKANNHATYYAASVKGRFTISRDDSKNSVYLQMNSLKTEDTAVYYCTGGYYPVYWGQGTLVTVSS VL: DIQMTQSPSSLSASVGDRVTITCKASQDINKNIAWYQHKPGKAPKLLIHYTSTLQPGVPSRFSGSGSGTDFTFTISSLQPEDIATYYCLQYDNLLTFGGGTKVEIK : reported pKd = ?
Result :: 8.89

Query :: Entry Hum22-K32-15C11 (antibody, V domains shown, also called H2/L2) VH: EVQLVESGGGLVQPGGSLRLSCAASGFTFSDAWMDWVRQAPGKGLEWVGEIRSKANNHATYYAASVKGRFTISRDDSKNSLYLQMNSLKTEDTAVYYCTGGYYPVYWGQGTLVTVSS VL: DIQMTQSPSSLSASVGDRVTITCKASQDINKNIAWYQHKPGKAPKLLIHYTSTLQPGVPSRFSGSGSGTDFTFTISSLQPEDIATYYCLQYDNLLTFGGGTKVEIK : reported pKd = ?
Result :: 8.76
